- Protocol details: Protein binding in dog plasma
- Format: ADME, Canis lupus familiaris
- Measurement conditions: read-out: PPB
Parameter measured: fraction unbound

{"columns": ["Cpd smiles", "Parameter measured", "Experimental result"],
 "data": [
  ["CC[C@@H]1[C@@H]2CN(C(=O)[C@H](C(C)(C)C)NC(=O)O[C@@H]3C[C@H]3CCCCC(F)(F)c3nc4ccc(OC)cc4nc3O2)[C@@H]1C(=O)N[C@]1(C(=O)NS(=O)(=O)C2(C)CC2)C[C@H]1C(F)F", "fraction unbound", "< 0.01"]
]}

====

- Protocol details: Drug concentration in rat liver after 6 hrs
- Assay type: ADME, tissue-based
- Measurement conditions: read-out: Drug uptake
Short version: concentration at 6 h at least 3 µM is t, less is f.

{"columns": ["Cpd smiles", "Group"],
 "data": [
  ["C=C[C@@H]1C[C@]1(NC(=O)[C@@H]1[C@H](CC)[C@@H]2CN1C(=O)[C@H](C(C)(C)C)NC(=O)O[C@@H]1C[C@H]1CCCCCc1nc3ccc(OC)cc3nc1O2)C(=O)NS(=O)(=O)C1CC1", "t"],
  ["CC[C@@H]1[C@@H]2CN(C(=O)[C@H](C(C)(C)C)NC(=O)O[C@@H]3C[C@H]3CCCCCc3nc4ccc(OC)cc4nc3O2)[C@@H]1C(=O)N[C@]1(C(=O)NS(=O)(=O)C2CC2)C[C@H]1C(F)F", "f"],
  ["CC[C@@H]1[C@@H]2CN(C(=O)[C@H](C(C)(C)C)NC(=O)O[C@@H]3C[C@H]3CCCCCc3nc4ccc(OC)cc4nc3O2)[C@@H]1C(=O)N[C@]1(C(=O)NS(=O)(=O)C2CC2)C[C@H]1CC", "t"],
  ["CC[C@@H]1[C@@H]2CN(C(=O)[C@H](C(C)(C)C)NC(=O)O[C@@H]3C[C@H]3CCCCCc3nc4ccc(OC)cc4nc3O2)[C@@H]1C(=O)N[C@]1(C(=O)NS(=O)(=O)C2(C)CC2)C[C@H]1C(F)F", "t"],
  ["COc1ccc2nc3c(nc2c1)O[C@H]1CN(C(=O)[C@H](C(C)(C)C)NC(=O)O[C@@H]2C[C@H]2CCCCC3)[C@H](C(=O)N[C@]2(C(=O)NS(=O)(=O)C3(C)CC3)C[C@H]2C(F)F)[C@@H]1C", "t"]
]}

====

- Protocol details: Inhibition of HCV genotype 3a NS3/4a protease by enzymatic assay
- Set-up: species or system Hepatitis C virus subtype 3a
Output true for records whose Ki is lower than 0.6 nM, false for records at or above 0.6 nM.

{"columns": ["Molecule", "Group"],
 "data": [
  ["CC[C@@H]1[C@@H]2CN(C(=O)[C@H](C(C)(C)C)NC(=O)O[C@@H]3C[C@H]3CCCCC(F)c3nc4ccc(OC)cc4nc3O2)[C@@H]1C(=O)N[C@]1(C(=O)NS(=O)(=O)C2(C)CC2)C[C@H]1C(F)F (stereo partly drawn)", "true"],
  ["CCC[C@@H]1[C@@H]2CN(C(=O)[C@H](C(C)(C)C)NC(=O)O[C@@H]3C[C@H]3CCCCCc3nc4ccc(OC)cc4nc3O2)[C@@H]1C(=O)N[C@]1(C(=O)NS(=O)(=O)C2(C)CC2)C[C@H]1C(F)F", "true"],
  ["C=C[C@@H]1C[C@]1(NC(=O)[C@@H]1[C@H](CC)[C@@H]2CN1C(=O)[C@H](C(C)(C)C)NC(=O)O[C@@H]1C[C@H]1CCCCCc1nc3ccc(OC)cc3nc1O2)C(=O)NS(=O)(=O)C1CC1", "true"],
  ["CC[C@@H]1[C@@H]2CN(C(=O)[C@H](C(C)(C)C)NC(=O)O[C@@H]3C[C@H]3CCCCCc3nc4ccc(OC)cc4nc3O2)[C@@H]1C(=O)N[C@]1(C(=O)NS(=O)(=O)C2(C)CC2)C[C@H]1C", "false"],
  ["CC[C@@H]1[C@@H]2CN(C(=O)[C@H](C(C)(C)C)NC(=O)O[C@@H]3C[C@H]3CCCCCc3nc4ccc(OC)cc4nc3O2)[C@@H]1C(=O)N[C@]1(C(=O)NS(=O)(=O)C2(C)CC2)C[C@H]1C(F)F", "true"],
  ["CC[C@@H]1[C@@H]2CN(C(=O)[C@H](C(C)(C)C)NC(=O)O[C@@H]3C[C@H]3CCCCCc3nc4ccc(OC)cc4nc3O2)[C@@H]1C(=O)N[C@]1(C(=O)NS(=O)(=O)C2CC2)C[C@H]1C(F)F", "true"],
  ["COc1ccc2nc3c(nc2c1)O[C@H]1CN(C(=O)[C@H](C(C)(C)C)NC(=O)O[C@@H]2C[C@H]2CCCCC3)[C@H](C(=O)N[C@]2(C(=O)NS(=O)(=O)C3CC3)C[C@H]2CC(F)F)[C@@H]1C", "false"],
  ["COc1ccc2nc3c(nc2c1)O[C@H]1CN(C(=O)[C@H](C(C)(C)C)NC(=O)O[C@@H]2C[C@H]2CCCCC3)[C@H](C(=O)N[C@]2(C(=O)NS(=O)(=O)C3(C)CC3)C[C@H]2C(F)F)[C@@H]1CC(C)C", "false"],
  ["CC[C@@H]1[C@@H]2CN(C(=O)[C@H](C(C)(C)C)NC(=O)O[C@@H]3C[C@H]3CC/C=C/C(F)(F)c3nc4ccc(OC)cc4nc3O2)[C@@H]1C(=O)N[C@]1(C(=O)NS(=O)(=O)C2(C)CC2)C[C@H]1C(F)F", "true"],
  ["CC[C@@H]1C[C@]1(NC(=O)[C@@H]1[C@H](C)[C@@H]2CN1C(=O)[C@H](C(C)(C)C)NC(=O)O[C@@H]1C[C@H]1CCCCCc1nc3ccc(OC)cc3nc1O2)C(=O)NS(=O)(=O)C1CC1", "true"],
  ["COc1ccc2nc3c(nc2c1)O[C@H]1CN(C(=O)[C@H](C(C)(C)C)NC(=O)O[C@@H]2C[C@H]2CCCCC3)[C@H](C(=O)N[C@]2(C(=O)NS(=O)(=O)C3(C)CC3)C[C@H]2C(F)F)[C@@H]1C", "true"],
  ["CC[C@@H]1[C@@H]2CN(C(=O)[C@H](C(C)(C)C)NC(=O)O[C@@H]3C[C@H]3CCCCC(F)(F)c3nc4ccc(OC)cc4nc3O2)[C@@H]1C(=O)N[C@]1(C(=O)NS(=O)(=O)C2(C)CC2)C[C@H]1C(F)F", "true"],
  ["CC[C@@H]1[C@@H]2CN(C(=O)[C@H](C(C)(C)C)NC(=O)O[C@@H]3C[C@H]3CCCC3CC3c3nc4ccc(OC)cc4nc3O2)[C@@H]1C(=O)N[C@]1(C(=O)NS(=O)(=O)C2(C)CC2)C[C@H]1C(F)F (stereo in doubt; 46)", "false"],
  ["C=C[C@@H]1C[C@]1(NC(=O)[C@@H]1[C@H](C)[C@@H]2CN1C(=O)[C@H](C(C)(C)C)NC(=O)O[C@@H]1C[C@H]1CCCCCc1nc3ccc(OC)cc3nc1O2)C(=O)NS(=O)(=O)C1CC1", "true"],
  ["COc1ccc2nc3c(nc2c1)O[C@H]1CN(C(=O)[C@H](C(C)(C)C)NC(=O)O[C@@H]2C[C@H]2CCCCC3)[C@H](C(=O)N[C@]2(C(=O)NS(=O)(=O)C3(C)CC3)C[C@H]2C(F)F)[C@@H]1Cc1ccccc1", "false"],
  ["CC[C@@H]1[C@@H]2CN(C(=O)[C@H](C(C)(C)C)NC(=O)O[C@@H]3C[C@H]3CCCC3CC3c3nc4ccc(OC)cc4nc3O2)[C@@H]1C(=O)N[C@]1(C(=O)NS(=O)(=O)C2(C)CC2)C[C@H]1C(F)F (stereo in doubt; 45)", "false"],
  ["CC[C@@H]1[C@@H]2CN(C(=O)[C@H](C(C)(C)C)NC(=O)O[C@@H]3C[C@H]3CCCCCc3nc4ccc(OC)cc4nc3O2)[C@@H]1C(=O)N[C@]1(C(=O)NS(=O)(=O)C2CC2)C[C@H]1CC", "true"],
  ["COc1ccc2nc3c(nc2c1)O[C@H]1CN(C(=O)[C@H](C(C)(C)C)NC(=O)O[C@@H]2C[C@H]2CCCCC3)[C@H](C(=O)N[C@]2(C(=O)NS(=O)(=O)C3(C)CC3)C[C@H]2C(F)F)[C@@H]1C1CC1", "false"]
]}
